Recorded values, source patent US10667517B2.

Assay: log P (neutral), HPLC on reversed-phase column (C 18), LC-MS neutral range
Type: physicochemical
Settings: reversed-phase HPLC column (C 18), pH 7.8, HPLC reversed-phase C 18, 55° C., pH 7.8, ammonium hydrogencarbonate/acetonitrile
Measured property: chromatographic logP

Below, 10 compounds whose answers are already recorded.
Fill blank: measured chromatographic logP of the compound `Fc1ccc(F)c(-c2cn3cnc(C(F)(F)F)cc3n2)n1` is ____.
2.02

What measured chromatographic logP goes with `Cn1c(-c2nc(F)ccc2F)nc2cc(C(F)(F)F)ccc21` ?
2.83

If you can, please state the reported chromatographic logP value of `CCSc1ccc(F)nc1-c1nc2cc(C(F)(F)F)ccc2n1C` .
3.44

So what does the record say about chromatographic logP for `CCS(=O)(=O)c1ccc(N)nc1-c1nc2cc(C(F)(F)F)cnc2n1C` ?
2.02

For the compound shown here, `CCS(=O)(=O)c1ccc(NC(C)=O)nc1-c1nc2cc(C(F)(F)F)cnc2o1` , give the reported chromatographic logP.
2.44

Fill in the blank: the reported chromatographic logP of `CCSc1ccc(F)nc1-c1nc2cc(C(F)(F)F)cnc2n1C` is ____.
3.45

# get_value(readout='chromatographic logP', item= `CCS(=O)(=O)c1ccc(C(=O)NC)nc1-c1nc2cc(C(F)(F)F)cnc2n1C` )
2.36

Fill blank: measured chromatographic logP of the compound `CCSc1ccc(Cl)nc1-c1nc2cc3c(cc2n1C)OC(F)(F)O3` is ____.
3.8

State the recorded chromatographic logP for this entry: `Cn1c(-c2nc(F)ccc2F)nc2cc(C(F)(F)F)cnc21`
2.72

Which chromatographic logP value belongs to `CCSc1ccc(Br)nc1C(=O)Nc1cc(C(F)(F)F)cnc1Cl` ?
5.27

I. CCS(=O)(=O)c1ccc(NC(C)=O)nc1-c1nc2cc(C(F)(F)F)cnc2n1C
II. CCS(=O)(=O)c1ccc(-n2cc(Cl)cn2)nc1-c1cn2cnc(C(F)(F)F)cc2n1
Response body: label of entry with the larger chromatographic logP; valid values I , II . Lab log: write the label of the selected item as the result.
II

====

Test system: Myzus persicae
Assay: Myzus persicae - spray test
Format: in vivo
Conditions: application rate 500 g/ha; all stages of green peach aphid on Chinese cabbage leaf discs; after 5-6 days
Procedure: Myzus persicae—Spray Test • Solvent: 78 parts by weight of acetone • 1.5 parts by weight of dimethylformamide • Emulsifier: alkylaryl polyglycol ether To produce a suitable active compound preparation, 1 part by weight of active compound is dissolved with the stated parts by weight of solvent and made up with water containing an emulsifier concentration of 1000 ppm until the desired concentration is attained. […] After 5-6 days, the efficacy in % is determined. […]
efficacy values for the compounds below.
Please reply with the bare figure in % and do not write the unit itself.

Worked examples follow.
Would you kindly share the measured efficacy for CCS(=O)(=O)c1ccc(N)nc1-c1nc2cc(C(F)(F)F)ccc2n1C [Example I-3] ?
100

Value lookup for efficacy; key = CCS(=O)(=O)c1ccc(NC(=O)CSC)nc1-c1nc2cc(C(F)(F)F)cnc2n1C [Example I-20]
90

efficacy lookup needed for CCS(=O)(=O)c1ccc(-n2nccn2)nc1-c1nc2cc(C(F)(F)F)cnc2n1C [Example I-23] , thanks.
90

I have this compound here, CCS(=O)(=O)c1ccc(NC(=O)C(C)CS(C)(=O)=O)nc1-c1nc2cc(C(F)(F)F)cnc2n1C (centres unmarked) [Example I-21] , and I need its recorded efficacy.
90

Please look up its efficacy: CCS(=O)(=O)c1ccc(-n2cncn2)nc1-c1nc2cc(C(F)(F)F)cnc2n1C [Example I-22]
100

Continuing:
Bench note: what efficacy did CCS(=O)(=O)c1ccc(N)nc1-c1nc2cc3c(cc2n1C)OC(F)(F)O3 [Example I-8] show?
90

# efficacy lookup, item CCS(=O)(=O)c1ccc(-n2cc(F)cn2)nc1-c1nc2cc(C(F)(F)F)cnc2n1C [Example I-24]
90

Record request: efficacy value, item CCS(=O)(=O)c1ccc(NC(C)=O)nc1-c1nc2cc(C(F)(F)F)ccc2n1C [Example I-2]
100
